Data origin: patent US11566007B2

# Assayed System: NRAS Q61R (Homo sapiens (Human), UniProt P01111+P62937, Q61R)
# Sequence (P01111 whole entry Q61R): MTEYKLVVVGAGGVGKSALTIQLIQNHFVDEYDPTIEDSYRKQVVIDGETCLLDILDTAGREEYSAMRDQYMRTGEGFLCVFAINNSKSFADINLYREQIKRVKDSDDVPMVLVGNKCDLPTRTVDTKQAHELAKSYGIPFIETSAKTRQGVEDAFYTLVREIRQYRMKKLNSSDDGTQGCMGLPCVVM
# Sequence (P62937 whole entry): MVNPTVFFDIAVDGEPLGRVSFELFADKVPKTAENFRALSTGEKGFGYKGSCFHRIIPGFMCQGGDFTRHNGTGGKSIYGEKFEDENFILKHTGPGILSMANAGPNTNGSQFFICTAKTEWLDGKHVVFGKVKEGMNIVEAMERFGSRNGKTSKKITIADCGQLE
# Assay Remarks: Ras-Raf (BRAF RBD) disruption / FRET / MOA assay, NRAS Q61R
# Type: biochemical
# Particulars: NRAS Q61R; Ras-Raf disruption/FRET/MOA assay; read-out: IC50* NRAS Q61R FRET data
Parameter: IC50

Field IC50 (entry C=CC(=O)N1CC[C@H](C(=O)N(C)[C@H](C(=O)N[C@H]2Cc3cc(sn3)-c3ccc4c(c3)c(c(-c3cccnc3[C@H](C)OC)n4CC)CC(C)(C)COC(=O)[C@@H]3CCCN(N3)C2=O)C(C)C)C1 (atropisomer, axis not shown) ) reads 1000 to 10000 nM

The compound listed as C=CC(=O)N1CCN(C(=O)N(C)[C@H](C(=O)N[C@H]2Cc3nc(cs3)-c3ccc4c(c3)c(c(-c3cccnc3[C@H](C)OC)n4CC(F)(F)F)CC(C)(C)COC(=O)[C@@H]3CCCN(N3)C2=O)C(C)C)CC12CC2 (atropisomer, axis not shown) has a reported IC50 of 10 to 100 nM

# IC50 of CO[C@@H](C)c1ncccc1-c1c2c3cc(ccc3n1CC(F)(F)F)N1CCO[C@@H](C[C@H](NC(=O)[C@@H](COC3CN(C(=O)C#CC(C)(C)N(C)C)C3)C(C)C)C(=O)N3CCC[C@H](N3)C(=O)OCC(C)(C)C2)C1 (atropisomer, axis not shown) = > 10000 nM

The compound identified as CCn1c(-c2cccnc2[C@H](C)OC)c2c3cc(ccc31)-c1csc(n1)C[C@H](NC(=O)[C@H](F)COC1CN(C(=O)C#CC(C)(C)N(C)C)C1)C(=O)N1CCC[C@H](N1)C(=O)OCC(C)(C)C2 (atropisomer, axis not shown) registered its IC50 at > 10000 nM

Kindly note the recorded IC50 for C=CC(=O)N1CC(OC[C@H](C(=O)N[C@H]2Cc3cc(F)cc(c3)-c3ccc4c(c3)c(c(-c3cccnc3[C@H](C)OC)n4CC(F)(F)F)CC(C)(C)COC(=O)[C@@H]3CCCN(N3)C2=O)C(C)C)C1 (atropisomer, axis not shown) , which is 1000 to 10000 nM

Data point: C=CC(=O)N1CCC2(CC1)CN(C(=O)N(C)[C@H](C(=O)N[C@H]1Cc3nc(cs3)-c3ccc4c(c3)c(c(-c3cccnc3[C@H](C)OC)n4CC)CC(C)(C)COC(=O)[C@@H]3CCCN(N3)C1=O)C(C)C)C2 (atropisomer, axis not shown) ; IC50 = 100 to 1000 nM

Short answer for C=CC(=O)N1CC[C@H](C(=O)N(C)[C@H](C(=O)N[C@H]2Cc3cc(ccn3)-c3ccc4c(c3)c(c(-c3cccnc3COC)n4CC)CC(C)(C)COC(=O)[C@@H]3CCCN(N3)C2=O)C(C)C)C1 : IC50 was > 10000 nM

The recorded IC50 for C=CC(=O)N(C)CCN1CCN(C(=O)N(C)[C@H](C(=O)N[C@H]2Cc3cccc(c3)-c3ccc4c(c3)c(c(-c3cccnc3[C@H](C)OC)n4CC)CC(C)(C)COC(=O)[C@@H]3CCCN(N3)C2=O)C(C)C)C[C@H]1C (atropisomer, axis not shown) is 1000 to 10000 nM

C=CC(=O)N1CCC(F)(C(=O)N(C)[C@H](C(=O)N[C@H]2C[C@H]3CN(CCO3)c3ccc4c(c3)c(c(-c3cccnc3[C@H](C)OC)n4CC)CC(C)(C)COC(=O)[C@@H]3CCCN(N3)C2=O)C(C)C)CC1 (atropisomer, axis not shown) has a reported IC50 of 1000 to 10000 nM

Sure, the documented IC50 for C=CC(=O)N1C[C@@H](N(C)C(=O)N(C)[C@H](C(=O)N[C@H]2Cc3nc(cs3)-c3ccc4c(c3)c(c(-c3cccnc3[C@H](C)OC)n4CC)CC(C)(C)COC(=O)[C@@H]3CCCN(N3)C2=O)C(C)C)[C@@H](C)C1 (atropisomer, axis not shown) is 100 to 1000 nM

C=CC(=O)N1CC[C@@]2(COCCN2C(=O)N(C)[C@H](C(=O)N[C@H]2Cc3nc(cs3)-c3ccc4c(c3)c(c(-c3cccnc3[C@H](C)OC)n4CC)CC(C)(C)COC(=O)[C@@H]3CCCN(N3)C2=O)C(C)C)C1 (atropisomer, axis not shown) has a reported IC50 of 100 to 1000 nM

The compound listed as C=CC(=O)N(C)CCN1CCN(C(=O)N(C)[C@H](C(=O)N[C@H]2Cc3nc(cs3)-c3ccc4c(c3)c(c(-c3cccnc3[C@H](C)OC)n4CC)CC(C)(C)COC(=O)[C@@H]3CCCN(N3)C2=O)C(C)C)CC1 (atropisomer, axis not shown) has a reported IC50 of 100 to 1000 nM

Value of measured IC50 for the entry C=CC(=O)N1CC[C@]2(C1)OCN([C@H](C(=O)N[C@H]1Cc3cccc(c3)-c3ccc4c(c3)c(c(-c3cccnc3[C@H](C)OC)n4CC)CC(C)(C)COC(=O)[C@@H]3CCCN(N3)C1=O)C(C)C)C2=O (atropisomer, axis not shown) : > 10000 nM

Documented IC50 of CCn1c(-c2cccnc2[C@H](C)OC)c2c3cc(ccc31)-c1cccc(c1)C[C@H](NC(=O)[C@H](C1CCCC1)N(C)C(=O)[C@@H]1CN(C(=O)C#CC(C)(C)N(C)C)C[C@@H]1C)C(=O)N1CCC[C@H](N1)C(=O)OCC(C)(C)C2 (atropisomer, axis not shown) : 1000 to 10000 nM

IC50 reported for this compound C=CC(=O)N1CCO[C@H]2CN(C(=O)N(C)[C@H](C(=O)N[C@H]3CC4=NN=C(O4)c4ccc5c(c4)c(c(-c4cccnc4[C@H](C)OC)n5CC(F)(F)F)CC(C)(C)COC(=O)[C@@H]4CCCN(N4)C3=O)C(C)C)C[C@H]21 (atropisomer, axis not shown) : > 10000 nM

----------
# Assayed System: KRAS G12D (Homo sapiens (Human), UniProt P01116+P62937, G12D)
# Sequence (P01116-2 other isoform, or with tags, fused parts or gaps G12D): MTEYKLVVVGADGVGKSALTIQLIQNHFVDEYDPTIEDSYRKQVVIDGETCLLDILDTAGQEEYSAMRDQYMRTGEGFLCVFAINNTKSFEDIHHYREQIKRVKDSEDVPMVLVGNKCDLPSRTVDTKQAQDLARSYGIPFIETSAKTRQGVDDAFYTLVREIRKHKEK
# Sequence (P62937 whole entry): as the sequence (P62937 whole entry) above
# Assay Remarks: Ras-Raf (BRAF RBD) disruption / FRET / MOA assay, KRAS G12D
# Assay type: biochemical
# Particulars: Ras-Raf disruption/FRET/MOA assay; class symbols; read-out: KRAS G12D FRET data IC50
Hi there, I'd appreciate the recorded IC50 for every entry that follows.

Noted for C=CC(=O)N1CCOC2(C1)CN(C(=O)N(C)[C@H](C(=O)N[C@H]1Cc3nc(cs3)-c3ccc4c(c3)c(c(-c3cccnc3[C@H](C)OC)n4CC(F)(F)F)CC(C)(C)COC(=O)[C@@H]3CCCN(N3)C1=O)C(C)C)C2 (atropisomer, axis not shown) : its IC50 reads 1000 to 10000 nM

get_value(item= CCn1c(-c2cccnc2[C@H](C)OC)c2c3cc(ccc31)-c1cc(O)cc(c1)C[C@H](NC(=O)[C@H](C(C)C)N1CCC3(CCN(C(=O)/C=C/CN(C)C)CC3)C1=O)C(=O)N1CCC[C@H](N1)C(=O)OCC(C)(C)C2 (atropisomer, axis not shown) , readout=IC50) returns 1000 to 10000 nM

// IC50 lookup, compound = CO[C@@H](C)c1ncccc1-c1c2c3nc(ccc3n1CC(F)(F)F)-c1cccc(c1)C[C@H](NC(=O)[C@@H](COC1CN(C(=O)C#CC(C)(C)N(C)C)C1)C(C)C)C(=O)N1CCC[C@H](N1)C(=O)OCC(C)(C)C2 (atropisomer, axis not shown) , result: > 10000 nM

The recorded IC50 for entry CCn1c(-c2cnccc2COC)c2c3cc(ccc31)-c1cc(O)cc(c1)C[C@H](NC(=O)[C@H](C(C)C)N(C)C(=O)[C@H]1CCN(C(=O)C#CCN(C)C)C1)C(=O)N1CCC[C@H](N1)C(=O)OCC(C)(C)C2 (atropisomer, axis not shown) [Example A107] equals 100 to 1000 nM

Looking up C=C(OC)C(=O)N1CC2(CCN(C(=O)N(C)[C@H](C(=O)N[C@H]3Cc4nc(cs4)-c4ccc5c(c4)c(c(-c4cccnc4[C@H](C)OC)n5CC)CC(C)(C)COC(=O)[C@@H]4CCCN(N4)C3=O)C(C)C)CC2)C1 (atropisomer, axis not shown) , I found its IC50 recorded as 100 to 1000 nM

compound C=CC(=O)N1CC[C@H](C(=O)N(C)[C@H](C(=O)N[C@H]2Cc3nc(cs3)-c3ccc4c(c3)c(c(-c3cc5c(nc3[C@H](C)OC)CCN(C)C5)n4CC)CC(C)(C)COC(=O)[C@@H]3CCCN(N3)C2=O)C(C)C)C1 (atropisomer, axis not shown) , IC50 observed: > 10000 nM

C=CC(=O)N1CCO[C@@H]2CCN(C(=O)N(C)[C@H](C(=O)N[C@H]3Cc4nc(cs4)-c4ccc5c(c4)c(c(-c4cccnc4[C@H](C)OC)n5CC)CC(C)(C)COC(=O)[C@@H]4CCCN(N4)C3=O)C(C)C)CC21 (stereo partly drawn) has a reported IC50 of 100 to 1000 nM

The reported value for C=CC(=O)N1CC[C@H](C(=O)N(C)[C@H](C(=O)N[C@H]2Cc3cc(O)cc(c3)-c3ccc4c(c3)c(c(-c3cccnc3COC)n4CC)CC(C)(C)COC(=O)[C@@H]3CCCN(N3)C2=O)C2CCCC2)C1 in terms of IC50 is 1000 to 10000 nM

The recorded IC50 for entry C=CC(=O)N1CC[C@H](C(=O)N(C)[C@H](C(=O)N[C@H]2Cn3cnc(n3)-c3ccc4c(c3)c(c(-c3cccnc3[C@H](C)OC)n4CC)CC(C)(C)COC(=O)[C@@H]3CCCN(N3)C2=O)C(C)C)C1 (atropisomer, axis not shown) equals > 10000 nM

The measured IC50 associated with C=CC(=O)N1CCO[C@H]2CN(C(=O)N(C)[C@H](C(=O)N[C@H]3Cc4cccc(c4)-c4ccc5c(c4)c(c(-c4cccnc4[C@H](C)OC)n5CC)CC(C)(C)COC(=O)[C@@H]4CCCN(N4)C3=O)C(C)C)C[C@H]21 (atropisomer, axis not shown) reads 1000 to 10000 nM

// recorded IC50 for CO[C@@H](C)c1ncccc1-c1c2c3cc(ccc3n1CC(F)(F)F)-c1nc(co1)C[C@H](NC(=O)[C@H](C(C)C)N(C)C(=O)C1(F)CCN(C(=O)C#CC(C)(C)N(C)C)CC1)C(=O)N1CCC[C@H](N1)C(=O)OCC(C)(C)C2 (atropisomer, axis not shown) : 100 to 1000 nM

Quick note, IC50 for CC#CC(=O)N1CC[C@@H](C(=O)N(C)[C@H](C(=O)N[C@H]2Cc3cc(O)cc(c3)-c3ccc4c(c3)c(c(-c3cncnc3)n4CC)CC(C)(C)COC(=O)[C@@H]3CCCN(N3)C2=O)C(C)C)C1 landed at > 10000 nM

What the record says about C=CC(=O)N1CC[C@H](C(=O)N(C)[C@H](C(=O)N[C@H]2Cc3nc(cs3)-c3ccc4c(c3)c(c(-c3cccnc3[C@H](C)OC)n4CC(F)(F)F)CC(C)(C)COC(=O)[C@@H]3CCCN(N3)C2=O)C(C)C)C1 (atropisomer, axis not shown) : IC50 is 1000 to 10000 nM

IC50 reading for C=CC(=O)N1CC[C@H](C(=O)N(C)[C@@H](CC(F)(F)F)C(=O)N[C@H]2Cc3cccc(c3)-c3ccc4c(c3)c(c(-c3cccnc3[C@H](C)OC)n4CC)CC(C)(C)COC(=O)[C@@H]3CCCN(N3)C2=O)C1 (atropisomer, axis not shown) : > 10000 nM

Documented IC50 of C=CC(=O)N1CCOC2(CCN(C(=O)N(C)[C@H](C(=O)N[C@H]3Cc4cc(C(F)F)cc(n4)-c4ccc5c(c4)c(c(-c4cccnc4[C@H](C)OC)n5CC(F)(F)F)CC(C)(C)COC(=O)[C@@H]4CCCN(N4)C3=O)C(C)C)CC2)C1 (atropisomer, axis not shown) : 1000 to 10000 nM
